Source: PubChem BioAssay (NCATS)

Assay: Viability qHTS for spleen associated tyrosine kinase inhibitor (SYKi) naive MV4-11 cells (AID 1963823); also: nearly all actives have a fitted effect of over 40% in size
Settings: MV4-11 AML viability, CellTiter-Glo luminescence, 72 h; series mostly up to 45 µM
Records with an inconclusive call do not appear. Active and inactive are the calls of the source. Calls follow the shape of the dose curve; as a rule, active = well fitted cell-killing curve with a large enough effect; inconclusive = small, poorly fitted or top-dose-only effect, or effect the other way; inactive = no such curve, though single readings can be large or run the other way.
Your answer must be one of the following: active, inactive

Recorded call for CO[C@H]1[C@@H](O)[C@@H](C)O[C@@H](O[C@@H]2C=C3C(OC(C)=O)CC4(O)C(CC[C@]5(C)[C@@H](C6=CC(=O)OC6)CC[C@]45O)[C@@]3(C)CC2)[C@@H]1O (some centres not stated) ?
active

Recorded call for `COP(=S)(OC)Oc1ccc(Sc2ccc(OP(=S)(OC)OC)cc2)cc1` ?
inactive

Recorded call for `NCc1cccnc1` ?
inactive

Recorded call for `CC[C@H](C)[C@@H]([C@@H](CC(=O)N1CCC[C@H]1[C@H](OC)[C@@H](C)C(=O)N[C@@H](Cc1ccccc1)c1nccs1)OC)N(C)C(=O)[C@@H](NC(=O)C(C)(C)N)C(C)C` ?
inactive

Recorded call for COC1C(O)C(C)OC(OC2C(CO)O[C@@H](O[C@@H]3CC4CCC5C(CC[C@]6(C)[C@@H](C7=CC(=O)OC7)CC[C@]56O)[C@@]4(C)[C@H](O)C3)C(O)C2O)C1O (some centres not stated) ?
active

Recorded call for C/C=C(\C)C(=O)OC1CC2C(C)(C)OC(=O)CC(OC(C)=O)C2(C)C2CC(OC(=O)C(C)C)C3(C)C(c4ccoc4)CC4OC43C12C (configuration not stated) ?
inactive

Recorded call for `CCOP(=O)(OCC)Oc1ccc2c(C)cc(=O)oc2c1` ?
inactive

* * *

Experiment: Viability qHTS for spleen associated tyrosine kinase inhibitor (SYKi) naive MV4-11 cells (AID 1963823); also: nearly all actives have a fitted effect of over 40% in size; also: potency is read from the fitted curve at half-maximal effect
Details: MV4-11 AML viability, CellTiter-Glo luminescence, 72 h; series mostly up to 45 µM
Results filed as inconclusive are left out. Activity calls are given as the source filed them. Calls come from the whole dose curve; as a rule, active = well fitted cell-killing curve with a large enough effect; inconclusive = small, poorly fitted or top-dose-only effect, or effect the other way; inactive = no such curve, though single readings can be large or run the other way.
Measured Parameter: Potency

Examples from the recorded data:
[
  {
    "Compound": "C1=C2CCCN[C@H]2[C@@H]2C[C@H]1[C@H]1CCCCN1C2",
    "Observed Result": "inactive"
  },
  {
    "Compound": "CCN1CC2(COC)C3[C@@H](OC)C4C1C3(C1C[C@]3(O)[C@H](OC(=O)c5ccccc5)C1[C@]4(OC(C)=O)[C@@H](O)[C@@H]3OC)[C@H](OC)C[C@H]2O (some centres undefined)",
    "Observed Result": "inactive"
  },
  {
    "Compound": "Oc1c(Br)cc(Br)cc1Br",
    "Observed Result": "inactive"
  },
  {
    "Compound": "ClCc1cccc(Cl)c1",
    "Observed Result": "inactive"
  },
  {
    "Compound": "CC(=O)O[C@@H]1[C@@H](O)[C@H]2O[C@@H]3C=C(C)[C@@H](O)C[C@]3(CO)[C@]1(C)[C@]21CO1",
    "Observed Result": "321 nM (active)"
  },
  {
    "Compound": "Oc1cc(Cl)ccc1Oc1ccc(Cl)cc1Cl",
    "Observed Result": "19700 nM (active)"
  },
  {
    "Compound": "C[C@]12CC[C@@H]3c4ccc(OC(=O)N(CCCl)CCCl)cc4CC[C@H]3[C@@H]1CC[C@@H]2OP(=O)(O)O",
    "Observed Result": "inactive"
  },
  {
    "Compound": "CCN(CC)C(=O)[C@@H]1C=C2c3cccc4[nH]cc(c34)C[C@H]2N(C)C1",
    "Observed Result": "28400 nM (active)"
  }
]

Using the record for `NN=C(N)N` , report its Potency.
inactive

Using the record for `Cc1nc2ccccc2c(=O)n1-c1ccccc1Cl` , report its Potency.
inactive
